experiment: Bioavailability in rat at 10 mg/kg; type: ADME, organism-based; settings: in vivo
result_type: bioavailability (%)
Respond numerically; units are % and should not be typed.

QUERY: Query (compound): `COc1ccc(CNC(=O)c2cc(-c3cc(C)cc(C)c3)cnc2-c2cccnc2)cc1OC` ; field requested: bioavailability
RESULT: 12

###

assay: Half life in rat; type: ADME, organism-based; details: in vivo
result_type: half-life (min)
Respond numerically; units are min and should not be typed.

QUERY: Query (compound): `COc1ccc(CNC(=O)c2cc(-c3cc(Cl)cc(Cl)c3)cnc2-c2cccnc2)cc1OC.Cl` ; field requested: half-life
RESULT: 54

###

target: hERG (KCNH2) (Homo sapiens); experiment: Inhibition of human ERG at 10 nM relative to control
result_type: inhibition at 0.01 µM (%)
Respond numerically; units are % and should not be typed.

QUERY: What reported inhibition at 0.01 µM corresponds to `COc1ccc(CNC(=O)c2cc(-c3cc(Cl)cc(Cl)c3)cnc2-c2cccnc2)cc1OC` on hERG (KCNH2) (Homo sapiens)?
RESULT: 3

###

assay: Clearance in rat; assay type: ADME, organism-based; settings: in vivo
result_type: clearance
Numeric answer plus unit only.

QUERY: Query (molecule): `COc1ccc(CNC(=O)c2cc(-c3cc(Cl)cc(Cl)c3)cnc2-c2cccnc2)cc1OC.Cl` ; field requested: clearance
RESULT: 39 mL/min/kg

###

biological target: hERG (KCNH2) (Homo sapiens, UniProt Q12809); assay: Inhibition of human ERG at 0.1 uM relative to control
Sequence (Q12809 whole entry): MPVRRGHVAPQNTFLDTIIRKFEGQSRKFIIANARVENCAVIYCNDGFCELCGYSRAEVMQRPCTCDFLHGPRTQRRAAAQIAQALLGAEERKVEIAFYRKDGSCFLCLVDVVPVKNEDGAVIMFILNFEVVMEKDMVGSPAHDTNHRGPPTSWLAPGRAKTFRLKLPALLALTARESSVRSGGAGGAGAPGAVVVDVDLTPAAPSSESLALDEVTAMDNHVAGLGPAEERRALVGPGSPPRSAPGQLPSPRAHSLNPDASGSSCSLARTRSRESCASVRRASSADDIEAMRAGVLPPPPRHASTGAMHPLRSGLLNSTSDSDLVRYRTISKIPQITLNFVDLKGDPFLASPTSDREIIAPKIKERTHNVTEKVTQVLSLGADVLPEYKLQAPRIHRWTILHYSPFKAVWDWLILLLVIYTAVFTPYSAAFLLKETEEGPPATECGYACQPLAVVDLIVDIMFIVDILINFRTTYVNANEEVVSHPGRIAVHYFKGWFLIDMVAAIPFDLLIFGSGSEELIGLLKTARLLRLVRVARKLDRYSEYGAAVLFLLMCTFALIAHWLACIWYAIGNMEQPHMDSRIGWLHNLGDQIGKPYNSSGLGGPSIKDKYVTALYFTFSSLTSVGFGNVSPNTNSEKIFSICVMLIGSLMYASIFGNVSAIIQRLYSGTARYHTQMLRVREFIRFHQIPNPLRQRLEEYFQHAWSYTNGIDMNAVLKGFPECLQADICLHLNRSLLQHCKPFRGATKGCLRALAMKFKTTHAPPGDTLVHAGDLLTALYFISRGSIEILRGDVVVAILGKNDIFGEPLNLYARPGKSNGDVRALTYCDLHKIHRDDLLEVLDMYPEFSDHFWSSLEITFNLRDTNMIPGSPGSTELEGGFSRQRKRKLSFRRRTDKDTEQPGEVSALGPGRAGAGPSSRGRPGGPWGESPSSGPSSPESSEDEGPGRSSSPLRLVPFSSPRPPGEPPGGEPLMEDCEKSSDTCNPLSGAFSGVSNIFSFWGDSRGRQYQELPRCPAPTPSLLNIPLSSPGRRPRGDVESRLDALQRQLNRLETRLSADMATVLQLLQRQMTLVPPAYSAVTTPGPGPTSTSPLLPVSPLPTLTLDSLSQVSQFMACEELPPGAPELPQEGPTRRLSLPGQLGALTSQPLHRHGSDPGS
result_type: inhibition at 0.1 µM (%)
Respond numerically; units are % and should not be typed.

QUERY: Query (molecule): `COc1ccc(CNC(=O)c2cc(-c3cc(Cl)cc(Cl)c3)cnc2-c2cccnc2)cc1OC` ; field requested: inhibition at 0.1 µM
RESULT: 12

###

assay: Oral bioavailability in rat; assay type: ADME, organism-based; conditions: in vivo
result_type: bioavailability
Numeric answer plus unit only.

QUERY: Query (compound): `COc1ccc(CNC(=O)c2cc(-c3cc(Cl)cc(Cl)c3)cnc2-c2cccnc2)cc1OC.Cl` ; field requested: bioavailability
RESULT: 55%

###

test: Lipophilicity, log P of the compound; type: physicochemical; conditions: octanol/water
result_type: logP
Form field (numeric): enter value without unit.

QUERY: Query (molecule): `COc1ccc(CNC(=O)c2cc(-c3cc(Cl)cc(Cl)c3)cnc2-c2cccnc2)cc1OC` ; field requested: logP
RESULT: 3.6

###

# Ki per entry for Orexin receptor type 2 (Homo sapiens, UniProt O43614)
Respond numerically; units are nM and should not be typed.

COc1ccc(CNC(=O)c2cc(-c3cc(F)cc(F)c3)cnc2-c2cccnc2)cc1OC 8.3
Cc1cc(C)cc(-c2cnc(-c3cccnc3)c(C(=O)NCc3ccc4c(c3)OCO4)c2)c1 17
Cc1cc(C)cc(-c2cnc(-c3cccnc3)c(C(=O)N(C)Cc3ccc4c(c3)OCO4)c2)c1 580
Cc1cc(C)cc(-c2cnc(-c3cccnc3)c(C(=O)NCc3ccc(F)c(C)c3)c2)c1 18

Now look at this entry.
QUERY: What reported Ki corresponds to `Cc1cc(C)cc(-c2cnc(-c3cccnc3)c(C(=O)NCc3ccc(N(C)C)cc3)c2)c1` on Orexin receptor type 2 (Homo sapiens, UniProt O43614)?
RESULT: 4.8

###

assay: Fraction unbound in human plasma by equilibrium dialysis method; format: ADME, cell-free
result_type: fraction unbound
Form field (numeric): enter value without unit.

QUERY: Query (compound): `COc1ccc(CNC(=O)c2cc(-c3cc(Cl)cc(Cl)c3)cnc2-c2cccnc2)cc1OC` ; field requested: fraction unbound
RESULT: 0.032

###

target: MDR1 (P-gp, ABCB1) (Homo sapiens, UniProt P08183); assay: Activity at human MDR1 expressed in pig LLC-PK cells assessed as efflux ratio of permeability from basolateral to apical side over apical to basolateral side; format: ADME, cell-based; conditions: LLC-PK1
Sequence (P08183 whole entry): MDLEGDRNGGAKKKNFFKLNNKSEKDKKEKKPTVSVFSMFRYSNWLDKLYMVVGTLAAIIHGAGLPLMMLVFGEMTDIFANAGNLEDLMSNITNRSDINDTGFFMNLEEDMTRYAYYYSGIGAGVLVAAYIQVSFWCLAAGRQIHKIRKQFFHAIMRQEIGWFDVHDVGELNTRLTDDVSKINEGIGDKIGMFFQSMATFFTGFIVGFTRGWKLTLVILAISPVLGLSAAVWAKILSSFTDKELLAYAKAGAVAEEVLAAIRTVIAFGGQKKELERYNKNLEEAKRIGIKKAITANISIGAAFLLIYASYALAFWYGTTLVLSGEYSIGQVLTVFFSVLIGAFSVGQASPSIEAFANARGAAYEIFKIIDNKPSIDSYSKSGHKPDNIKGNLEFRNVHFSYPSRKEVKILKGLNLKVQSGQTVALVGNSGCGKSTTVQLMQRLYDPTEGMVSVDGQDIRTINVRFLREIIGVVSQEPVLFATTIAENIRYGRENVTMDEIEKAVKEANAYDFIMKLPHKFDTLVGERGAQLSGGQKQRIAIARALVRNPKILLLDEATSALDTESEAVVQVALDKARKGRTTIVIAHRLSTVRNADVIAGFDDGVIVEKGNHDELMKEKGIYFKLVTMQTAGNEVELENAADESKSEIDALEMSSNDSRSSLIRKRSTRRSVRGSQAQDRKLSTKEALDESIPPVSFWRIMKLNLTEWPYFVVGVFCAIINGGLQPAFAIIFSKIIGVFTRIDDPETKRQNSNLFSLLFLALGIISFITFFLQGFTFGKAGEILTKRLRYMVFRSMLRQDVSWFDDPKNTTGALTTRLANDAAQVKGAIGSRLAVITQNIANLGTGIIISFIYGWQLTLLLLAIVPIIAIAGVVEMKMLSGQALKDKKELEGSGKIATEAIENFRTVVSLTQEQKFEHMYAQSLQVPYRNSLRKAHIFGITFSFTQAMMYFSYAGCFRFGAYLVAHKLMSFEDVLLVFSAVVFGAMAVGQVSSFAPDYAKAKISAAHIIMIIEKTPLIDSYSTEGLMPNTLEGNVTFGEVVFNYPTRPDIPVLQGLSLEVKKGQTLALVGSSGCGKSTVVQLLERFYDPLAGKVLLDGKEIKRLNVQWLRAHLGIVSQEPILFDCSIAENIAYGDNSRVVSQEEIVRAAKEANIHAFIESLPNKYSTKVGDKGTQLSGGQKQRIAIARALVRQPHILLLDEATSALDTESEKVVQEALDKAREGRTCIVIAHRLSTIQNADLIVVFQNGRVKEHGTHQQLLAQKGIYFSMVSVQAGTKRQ
result_type: efflux ratio
Form field (numeric): enter value without unit.

QUERY: Query (compound): `COc1ccc(CNC(=O)c2cc(-c3cc(Cl)cc(Cl)c3)cnc2-c2cccnc2)cc1OC` ; field requested: efflux ratio
RESULT: 6.4

###

species: Homo sapiens; assay: Selectivity ratio of Ki for human orexin-1 receptor to Ki for human orexin-2 receptor
Everything with Ratio Ki lower than 600 is FALSE; everything else, including exactly 600, is TRUE.

For orientation, consider the following solved cases.
COc1ccc(CNC(=O)c2cc(-c3cc(Cl)cc(Cl)c3)cnc2-c2cccnc2)cc1OC TRUE
COc1cccc(CNC(=O)c2cc(-c3cc(C)cc(C)c3)cnc2-c2cccnc2)c1 FALSE
Cc1cc(C)cc(-c2cnc(-c3cccnc3)c(C(=O)NCc3ccc(C(F)(F)F)c(F)c3)c2)c1 FALSE
Cc1cc(C)cc(-c2cnc(-c3cccnc3)c(C(=O)NCc3ccc4c(c3)CCN4C)c2)c1 FALSE
COc1ccc(CNC(=O)c2cc(-c3cc(C)cc(C)c3)cnc2-c2cccnc2)cc1OC TRUE

QUERY: Assess whether reported Ratio Ki for `COc1ccc(CNC(=O)c2cc(-c3cc(C(F)(F)F)cc(C(F)(F)F)c3)cnc2-c2cccnc2)cc1OC` sits at 600 or higher.
RESULT: FALSE

###

target: Orexin/Hypocretin receptor type 1 (Homo sapiens); test: Antagonist activity at human orexin-1 receptor assessed as inhibition of orexin-A-induced intracellular calcium mobilization after 30 mins by cell-based FLIPR assay
Sequence (O43613 whole entry): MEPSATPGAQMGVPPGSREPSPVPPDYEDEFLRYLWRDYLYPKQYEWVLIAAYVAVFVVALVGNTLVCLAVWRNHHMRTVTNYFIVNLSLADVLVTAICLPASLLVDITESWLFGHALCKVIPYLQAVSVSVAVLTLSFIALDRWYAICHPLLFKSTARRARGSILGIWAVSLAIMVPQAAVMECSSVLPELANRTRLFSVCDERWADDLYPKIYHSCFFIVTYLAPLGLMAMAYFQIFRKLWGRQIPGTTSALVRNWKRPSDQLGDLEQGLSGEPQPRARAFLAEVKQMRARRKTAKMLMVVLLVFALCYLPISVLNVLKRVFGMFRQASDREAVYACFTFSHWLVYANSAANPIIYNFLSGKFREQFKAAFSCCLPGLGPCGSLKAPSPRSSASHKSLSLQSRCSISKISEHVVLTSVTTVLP
result_type: pIC50
On this scale, pIC50 is minus log10 of a concentration expressed in M (mol/L).

QUERY: Query (compound): `COc1ccc(CNC(=O)c2cc(-c3cc(Cl)cc(Cl)c3)cnc2-c2cccnc2)cc1OC` ; field requested: pIC50
RESULT: 6.53

###

molecular target: Mu-type opioid receptor (Homo sapiens, UniProt P35372)
Sequence (P35372 whole entry): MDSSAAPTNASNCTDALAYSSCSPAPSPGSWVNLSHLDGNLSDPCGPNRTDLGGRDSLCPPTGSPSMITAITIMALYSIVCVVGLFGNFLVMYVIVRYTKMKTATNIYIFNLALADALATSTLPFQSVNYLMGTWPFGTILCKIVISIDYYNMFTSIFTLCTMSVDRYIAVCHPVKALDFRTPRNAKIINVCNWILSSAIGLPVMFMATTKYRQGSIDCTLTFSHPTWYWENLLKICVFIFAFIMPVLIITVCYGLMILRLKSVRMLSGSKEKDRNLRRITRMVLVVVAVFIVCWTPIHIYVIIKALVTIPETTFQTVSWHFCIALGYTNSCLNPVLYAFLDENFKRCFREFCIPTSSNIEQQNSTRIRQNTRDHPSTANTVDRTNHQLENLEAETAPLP
result_type: Ki (nM)
Respond numerically; units are nM and should not be typed.

QUERY: What reported Ki corresponds to `COc1ccc(CNC(=O)c2cc(-c3cc(Cl)cc(Cl)c3)cnc2-c2cccnc2)cc1OC` on Mu-type opioid receptor (Homo sapiens, UniProt P35372)?
RESULT: 2040

###

molecular target: UniProt:Q12809; test: Inhibition of human ERG at 1 uM relative to control
result_type: inhibition at 1 µM
Numeric answer plus unit only.

QUERY: Query (molecule): `COc1ccc(CNC(=O)c2cc(-c3cc(Cl)cc(Cl)c3)cnc2-c2cccnc2)cc1OC` ; field requested: inhibition at 1 µM
RESULT: 17%

###

A collection of compounds and their measured log10 of Ki
biological target: Orexin/Hypocretin receptor type 1 (Homo sapiens)
Scale: log10; quantity: Ki; unit before log: nM

COc1ccc(CNC(=O)c2cc(-c3cc(C(F)(F)F)cc(C(F)(F)F)c3)cnc2-c2cccnc2)cc1OC 4.81
Cc1cc(C)cc(-c2cnc(-c3cccnc3)c(C(=O)NCc3ccc(F)c(C)c3)c2)c1 3.04
COc1ccc(CNC(=O)c2cc(-c3cccc(Cl)c3)cnc2-c2cccnc2)cc1OC 2.87
COc1ccc(CNC(=O)c2cc(-c3cc(Cl)cc(Cl)c3)cnc2-c2cccnc2)cc1OC 1.98
Cc1cc(C)cc(-c2cnc(-c3cccnc3)c(C(=O)NCc3ccc(C(F)(F)F)c(F)c3)c2)c1 2.37

QUERY: Query (compound): `COc1cccc(CNC(=O)c2cc(-c3cc(C)cc(C)c3)cnc2-c2cccnc2)c1` ; field requested: log10 of Ki
RESULT: 3.53

QUERY: Likewise for `Cc1cc(C)cc(-c2cnc(-c3cccnc3)c(C(=O)NCc3ccc4c(c3)OCO4)c2)c1` ?
RESULT: 3.55

QUERY: Likewise for `COc1ccc(CNC(=O)c2cc(-c3cc(C)cc(C)c3)cnc2-c2cccnc2)cc1OC` ?
RESULT: 2.66

QUERY: Likewise for `COc1ccc(CNC(=O)c2cc(-c3cc(F)cc(Cl)c3)cnc2-c2cccnc2)cc1OC` ?
RESULT: 3.04

QUERY: Likewise for `COc1ccc(CNC(=O)c2cc(-c3cc(F)cc(F)c3)cnc2-c2cccnc2)cc1OC` ?
RESULT: 3.71

###

biological target: UniProt:Q12809
result_type: IC50 (µM)
Respond numerically; units are µM and should not be typed.

QUERY: What reported IC50 corresponds to `COc1ccc(CNC(=O)c2cc(-c3cc(Cl)cc(Cl)c3)cnc2-c2cccnc2)cc1OC` on UniProt:Q12809?
RESULT: 6.95

###

biological target: MAO-B (Homo sapiens, UniProt P27338); experiment: Inhibition of human MAO-B at 10 uM relative to control
Sequence (P27338 whole entry): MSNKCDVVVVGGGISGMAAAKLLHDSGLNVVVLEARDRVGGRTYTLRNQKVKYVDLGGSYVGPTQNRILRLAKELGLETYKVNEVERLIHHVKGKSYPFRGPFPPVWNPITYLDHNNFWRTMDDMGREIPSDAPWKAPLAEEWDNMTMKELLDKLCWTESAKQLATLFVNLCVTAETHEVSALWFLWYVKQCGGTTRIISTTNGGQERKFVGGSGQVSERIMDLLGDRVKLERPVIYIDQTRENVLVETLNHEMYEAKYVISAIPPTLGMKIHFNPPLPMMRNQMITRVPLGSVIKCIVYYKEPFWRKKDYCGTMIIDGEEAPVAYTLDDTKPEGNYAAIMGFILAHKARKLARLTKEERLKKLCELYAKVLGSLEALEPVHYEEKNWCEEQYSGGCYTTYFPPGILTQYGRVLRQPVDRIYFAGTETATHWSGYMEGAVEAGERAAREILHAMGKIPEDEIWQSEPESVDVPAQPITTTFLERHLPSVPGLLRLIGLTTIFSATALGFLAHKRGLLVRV
result_type: inhibition at 10 µM (%)
Respond numerically; units are % and should not be typed.

QUERY: Query (compound): `COc1ccc(CNC(=O)c2cc(-c3cc(Cl)cc(Cl)c3)cnc2-c2cccnc2)cc1OC` ; field requested: inhibition at 10 µM
RESULT: 31

###

molecular target: L-type calcium channel, benzothiazepine binding site (Rattus norvegicus, UniProt P22002+P27732+Q02485); experiment: Inhibition of rat L-type calcium channel benzothiazepine binding site at 10 uM relative to control
result_type: inhibition at 10 µM (%)
Respond numerically; units are % and should not be typed.

QUERY: Query (compound): `COc1ccc(CNC(=O)c2cc(-c3cc(Cl)cc(Cl)c3)cnc2-c2cccnc2)cc1OC` ; field requested: inhibition at 10 µM
RESULT: 1
